The measured values listed here are drawn from patent US20230125550A1.

Molecular target: T1, recombinant human CD123-Fc (human, UniProt P26951 19-305)
T1 construct: not shown: Fc part of CD123-Fc
T1 sequence: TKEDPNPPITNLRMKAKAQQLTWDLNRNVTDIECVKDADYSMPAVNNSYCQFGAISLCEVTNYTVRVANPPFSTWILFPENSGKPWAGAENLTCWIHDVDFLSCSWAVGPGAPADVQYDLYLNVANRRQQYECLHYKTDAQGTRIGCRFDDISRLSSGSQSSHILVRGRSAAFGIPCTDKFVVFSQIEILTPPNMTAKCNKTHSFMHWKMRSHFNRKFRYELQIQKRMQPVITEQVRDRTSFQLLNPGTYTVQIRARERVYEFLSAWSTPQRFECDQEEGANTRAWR
Experiment: phage ELISA, captured CD123-Fc
endpoint label: ELISA_avg

binder	endpoint label	value measured
SEQ ID NO: 372 (designed binder, D domain, on phage) MGSWDEFVDRLWAIEERLWALGGSEAELAAFEKEIAAFESELQAYKGKGNPEVEELRIQAAIIREALQAYRHN	ELISA_avg	6 ratio A450 target/IgG1-Fc
SEQ ID NO: 415 (designed binder, D domain, on phage) MGSWVEFEMRLDAIVGRLYALGGSEAELAAFEKEIAAFESELQAYKGKGNPEVEKLRRWAANIRSELQAYRHN	ELISA_avg	25.3 ratio A450 target/IgG1-Fc
SEQ ID NO: 597 (designed binder, D domain, on phage) MGSWWEFDSRLDAIDFRLWALGGSEAELAWFEVEIADFEDWLQLYKGKGNPEVEALWHEADAIVTELYAYRHN	ELISA_avg	3.2 ratio A450 target/IgG1-Fc
SEQ ID NO: 561 (designed binder, D domain, on phage) MGSWNEFLLRLDAIEHRLFALGGSEAELAEFEWEIADFEDDLQWYKGKGNPEVEALVEEAEAIDVELVAYRHN	ELISA_avg	3.2 ratio A450 target/IgG1-Fc
SEQ ID NO: 447 (designed binder, D domain, on phage) MGSWVFFKDDLADIKDELEALGGSEAELAFFEIAIALFEWELQEYKGKGNPEVEALRKEAAAIRDELQAYRHN	ELISA_avg	8.8 ratio A450 target/IgG1-Fc
